system: IL-1β, IL-6, IFN-γ, TNF-α, IL-8, MIP-1α, MCP-1, MIP-10, RANTES; assay: Cynomolgus monkeys: cytokine and chemokine assays (Example 30); format: in vivo; conditions: day −14 (before start of treatment)
In the oligonucleotide strings, read from the 5' end, every base follows the letter of its sugar. An asterisk marks phosphorothioate; unmarked linkages are phosphodiester. Other units and linkages are bracketed, terminal groups are in braces. A string of capitals states the bases alone. e = 2'-O-(2-methoxyethyl) (MOE); [5mC] = 5-methylcytosine; d = 2'-deoxy (DNA)
Measured IL-1β level, listed per entry for reference.
Express the result in pg/mL but write the number alone.

ISIS 449708: microwalk gapmer of Table 53 (antisense eA*e[5mC]*eA*dG*dT*dT*dT*d[5mC]*dT*dG*dG*e[5mC]*eA*eG)	35
ISIS 445531: microwalk gapmer of Table 51 (antisense eG*eG*e[5mC]*eA*eT*dT*dG*dG*dT*dG*d[5mC]*dA*d[5mC]*eA*eG*eT*eT*eT)	101
ISIS 416850: gapmer of Table 8 (antisense eT*eG*e[5mC]*eA*e[5mC]*dA*dG*dT*dT*dT*d[5mC]*dT*dG*dG*d[5mC]*eA*eG*eG*e[5mC]*e[5mC])	215
ISIS 449711: microwalk gapmer of Table 53 (antisense eA*e[5mC]*dA*dG*dT*dT*dT*d[5mC]*dT*dG*dG*d[5mC]*eA*eG)	79

Then there is this substance:
Per the records, this substance ( ISIS 449707: microwalk gapmer of Table 53 (antisense e[5mC]*eA*e[5mC]*eA*dG*dT*dT*dT*d[5mC]*dT*dG*dG*e[5mC]*eA*eG*eG) ) has IL-1β level equal to 115
